Measured values drawn from PubChem BioAssay (NCI) for this set.

- Tested on: NCI-H23 lung
- Assay remarks: NCI-60 one-dose screen, 48 h (100 = growth as untreated, 0 = no growth, -100 = all killed)
- Conditions: 10 µM unless noted
This is part of a sample that, as a whole, favours compounds with a hit. Of some 83,000 tested, about 20% had one in any assay.
So basically: is growth under 30%? Then 1. Not under? Then 0.

# input Hi there! Is growth for CCCCCCCNC(=O)CCCNc1ncnc2c1ncn2-c1cccc(C(C)O)c1 (stereo not given) below 30%, do you know?
# output 0

# input Is the reported growth for CN1CCN(Cc2ccc(NC(=O)c3cncc(C#Cc4cnccc4C#N)c3)cc2C(F)(F)F)CC1 strictly below 30%?
# output 0

# input For this compound, is growth lower than 30%? Oc1ccc(-c2nc3ccc4[nH]ncc4c3c3c2CCCC3)c2cccnc12
# output 1

# input Consider COc1cc2cc(Oc3ccc(NC(=O)Nc4ccc(F)c(C(F)(F)F)c4)cc3)c(C)nc2cc1OCCN1CCOCC1 . Does its growth lie strictly below 30%?
# output 1

====

- System: OVCAR-8 ovarian
- Assay remarks: NCI-60 one-dose screen, 48 h (100 = growth as untreated, 0 = no growth, -100 = all killed)
- Conditions: 10 µM unless noted
This is part of a sample that, as a whole, favours compounds with a hit. Of some 83,000 tested, about 20% had one in any assay.
Classify as follows. Reported growth greater than or equal to 50%: YES. Reported growth below: NO.

# Compound, Target or system, Assigned label
records = [
    ("CCCCNc1nc(NN2C(=O)c3cccc4cccc(c34)C2=O)nc(-n2cnc3ccccc32)n1", "OVCAR-8 ovarian", "YES"),
    ("Cc1cccc2c3c(sc12)C(c1ccc(Cl)cc1)C(C#N)=C(/N=C/c1ccc(Cl)cc1)O3 (stereo not given)", "OVCAR-8 ovarian", "NO"),
    ("Cc1cc(-c2cc(C)c(N)cc2C)c(C)cc1N", "OVCAR-8 ovarian", "YES"),
    ("CCOC(=O)C1=C(N)Oc2c(sc3c(C)cccc23)C1c1ccc(OC)cc1 (stereo not given)", "OVCAR-8 ovarian", "NO"),
]

Kindly review the next compound as well.
# input Is reported growth greater than or equal to 50% here: COc1ccc2c(c1)/C(=C/c1sc(=S)n(Cc3ccco3)c1O)C=N2
# output NO

====

- Test system: SK-MEL-28 melanoma
- Assay remarks: NCI-60 one-dose screen, 48 h (100 = growth as untreated, 0 = no growth, -100 = all killed)
- Conditions: 10 µM unless noted
- Protocol: Growth inhibition of the SK-MEL-28 human tumor cell line is measured as a screen for anti-cancer activity. Cells are grown in 96 well plates and exposed to the test compound for 48 hours. Compounds are tested at a single concentration, which is 10^-5 M for most compounds. The reported endpoint is percent growth (GI% or GIPRCNT), where numbers from 0 - 100% represent growth inhibition, and numbers from -100% - 0 represent cell death. For example, a value of 40 represents 60% growth inhibition. […]
The panel holds about 83,000 compounds, 20% with a hit somewhere; the sample as a whole holds those more often.
Readout kind: growth (%)
Give the number; % is assumed, so skip it.

# Molecule, growth [%]
measured = [
    ("Cc1ccc(S(=O)(=O)N/N=C/C2(c3ccccc3)CC2)cc1", 106),
    ("N#Cc1ccc(NC(=O)c2sc3nc4c(cc3c2N)C(=O)CCC4)cc1", 106),
    ("c1ccc2cc(C[n+]3ccn(CCCCCCn4cc[n+](Cc5ccc6ccccc6c5)c4)c3)ccc2c1", 63.4),
]

# input So what's the measured growth for this one? COc1cccc(/C=C2\C=C(c3ccccc3)N(Cc3ccccc3)C2=O)c1
# output 79.9

# input Name the recorded growth for CC(=O)N1N=C(c2ccc(Nc3nc(Nc4ccc(F)cc4)nc(Nc4ccc(Cl)cc4)n3)cc2)CC1c1ccc(Cl)cc1 (stereo not given) .
# output 121

====

- System: OVCAR-4 ovarian
- Assay remarks: NCI-60 one-dose screen, 48 h (100 = growth as untreated, 0 = no growth, -100 = all killed)
- Conditions: 10 µM unless noted
The panel holds about 83,000 compounds, 20% with a hit somewhere; the sample as a whole holds those more often.
Criterion: growth meeting or surpassing 80%. Met: t. Not met: f.

# Molecule, Assigned label
measured = [
    ("COc1ccc(-c2csc(NC(=O)N3CCN(c4cc5c(cc4F)c(=O)c(C(=O)O)cn5C4CC4)CC3)n2)cc1", "f"),
    ("O=CN(SSN(C=O)C1CCCCC1)C1CCCCC1", "t"),
    ("Nc1nc(Cl)cc(=O)n1Cc1ccccc1", "t"),
    ("N[C@@H](Cc1ccccc1)[C@@H](O)C(=O)NCc1ccc(F)cc1", "t"),
    ("Brc1c[n+](Cc2ccc3ccccc3c2)cn1Cc1ccc2ccccc2c1", "f"),
]

Kindly consider the entry below.
# input Tell me whether growth is at least 80% here: O=C(Nc1c2ccccc2nc2ccccc12)c1ccccc1CN1C(=O)c2ccccc2C1=O
# output f

====

- System: RXF 393 renal
- Assay remarks: NCI-60 one-dose screen, 48 h (100 = growth as untreated, 0 = no growth, -100 = all killed)
- Conditions: 10 µM unless noted
This is part of a sample that, as a whole, favours compounds with a hit. Of some 83,000 tested, about 20% had one in any assay.
Readout kind: growth (%)
Give your result in % as a bare value.

Some solved cases for reference:
# Compound, growth (%)
measured = [
    ("CCN1C(=O)N(CC)C2Nn3c(s/c(=C4\\C(=O)N(CCC(C)C)c5ccccc54)c3=O)=NC21 (stereo not given)", 84.5),
    ("CCOc1ccc2nc(SCc3nc4n(n3)S(=O)(=O)c3ccccc3N4C)sc2c1", 7.23),
]

# input Requested field: growth. Item: COc1ccc(-c2nnc(COc3ccc(Cl)cc3Cl)o2)cc1OC
# output -56.7

# input Entry CCc1ccc(Oc2c(-c3ccc(OCc4ccc(Cl)cc4)cc3O)nn(C)c2C(F)(F)F)cc1 : reported growth = ?
# output -43.3

# input Fill in: growth of COc1cc(/C=C/c2c(C(C)=O)c(C)nc3ccccc23)cc(OC)c1OC is ___
# output 10.8

# input Can you share its growth? I mean this compound: COc1ccc(/C=C(/C#N)n2nnc3cccc(F)c32)cc1
# output -37.9

# input Dear colleague, I am looking for the recorded growth of the following compound: O=C(/C=C/c1sc(Cl)nc1Cl)c1ccc(F)cc1
# output 93.3

# input Fill in: growth of COc1ccc(NC2=C(Br)C(=O)C(C)=C(C)C2=O)cc1 is ___
# output 102

# input Quick one: growth for Cc1ccc(C(=O)NN2C(=O)CSC2c2cccc([N+](=O)[O-])c2)cn1 (stereo not given) ?
# output 82.8

# input Requested field: growth. Item: C/C(=C(/c1ccccc1)c1ccc(N2C(=O)c3cccc4c(N5CCN(C)CC5)ccc(c34)C2=O)cc1)c1ccccc1
# output 74.8

====

- System: CAKI-1 renal
- Assay remarks: NCI-60 one-dose screen, 48 h (100 = growth as untreated, 0 = no growth, -100 = all killed)
- Conditions: 10 µM unless noted
This is part of a sample that, as a whole, favours compounds with a hit. Of some 83,000 tested, about 20% had one in any assay.
We use 20% as the dividing line for growth: on or above the line is fulfilled, below is not fulfilled.

# count of solved cases: 3
# Mol smiles, Assigned label
records = [
    ("CCCCCCNC(=O)Oc1ccc(/C(=C(\\C)c2ccc(Cl)cc2)c2ccc(OCCN3CCCCC3)cc2)cc1", "fulfilled"),
    ("Cc1nc(NC(=O)COc2ccc(/C=C3\\Cc4ccc(Cl)cc4C3=O)cc2)sc1C", "fulfilled"),
    ("c1ccc2c(-c3nc(-c4c[nH]c5ccncc45)cs3)c[nH]c2c1", "not fulfilled"),
]

# input I'd appreciate it if you could say whether CN(C)c1ccc(/C=N\Nc2cc(=O)[nH]c3ccc(Cl)cc23)cc1 has growth at least equal to 20%.
# output fulfilled

# input Entry NCCCNc1nc2ccc(Cl)cc2c2c(=O)c3cc(F)ccc3sc12 : is its growth no less than 20%?
# output fulfilled

====

- Tested on: A498 renal
- Assay remarks: NCI-60 one-dose screen, 48 h (100 = growth as untreated, 0 = no growth, -100 = all killed)
- Conditions: 10 µM unless noted
About 83,000 compounds went through this panel and 20% of them were active in at least one assay; those are over-represented in the sample as a whole.
Overview of reported growth across a group of compounds:
# number only, unit % dropped from output

Example compounds with recorded growth:
# Compound, growth [%]
rows = [
    ("Oc1ccc(Cl)cc1Cc1cc(Cl)cc(Cl)c1O", 85.9),
    ("O=c1ccn(Cc2cn(-c3c4ccccc4nc4ccccc34)nn2)c(=O)[nH]1", 81.8),
    ("COc1ccc(CNC(=O)C(=O)[C@H](Cc2ccccc2)NC(=O)c2[nH]c3ccccc3c(=O)c2C)cc1", 100),
    ("COc1ccc(C2CC(c3ccc(Nc4nc(Nc5ccc(F)cc5)nc(Nc5ccc(Cl)cc5)n4)cc3)=NN2C(C)=O)cc1 (centres undefined)", 129),
    ("COc1c(C2CC(=O)Nc3c2c(C)nn3-c2nc3ccccc3[nH]2)cc2c(c1OC)OCO2 (centres undefined)", 22.6),
    ("COc1cc(CCC[P+](c2ccccc2)(c2ccccc2)c2ccccc2)c(OC)c(OC)c1OC", -6.09),
    ("COc1cccc(Cc2nn3cc(-c4ccccc4)nc3s2)c1", 99.5),
    ("CCOC(=O)Cn1c(C)c(/C=N/NC(=O)c2cc3c(ccc4ccccc43)o2)c2ccccc21", -6.48),
]

# input # growth lookup, item C[C@H](C(=O)Nc1ccc(S(N)(=O)=O)cc1)S(=O)(=O)c1ccccc1
# output 106
